Measurement Notes: DUSP6 inhibitors restoring Erk phosphorylation by chemical complementation, primary imaging in DUSP6-transfected HeLa (AID 609)
Test Conditions: HeLa MKP-3 transfected, phospho-Erk imaging KS statistic; measured here: nuclear c-Myc green intensity z-score; at 10 µM; cells stimulated with TPA for 15 min
Quantity: z-score
Give bare numbers.

C[C@]12CC[C@@H]3c4ccc(O[C@@H]5O[C@H](C(=O)O)[C@@H](O)[C@H](O)[C@H]5O)cc4CC[C@H]3[C@@H]1C[C@@H](O)[C@@H]2O | -0.52

Give z-score for each listed item.
1. Cc1ccc(N(Cc2cc3ccccc3[nH]c2=O)C(=O)c2ccco2)c(C)c1
2. CC(=O)Oc1ccccc1C1OCCN1C(C)=O (stereo not given)
3. CCC(=O)Oc1ccc(/C(CC)=C(\CC)c2ccc(OC(=O)CC)cc2)cc1
4. CC1=NN(c2ccccc2)C(=O)C1
5. CCOC(=O)c1[nH]c2cc3c(cc2c1NC(=O)CN1CCC(C)CC1)OCO3
6. COc1ccc(CCn2c(=N)c(C(=O)NCc3ccco3)cc3c(=O)n4ccccc4nc32)cc1

Outgoing:
1: -1.26; 2: -0.565; 3: 0.714; 4: -0.649; 5: 1.52; 6: 0.0165

For each of the items listed, what is its z-score?
1. CCN(CC)CCN1C(=O)C(=O)/C(=C(/O)c2c(C)[nH]c(C(=O)OC)c2C)C1c1ccco1 (stereo not given)
2. CO[C@@]1(NC(=O)CSCC#N)C(=O)N2C(C(=O)O)=C(CSc3nnnn3C)CS[C@@H]21
3. N#CCSc1nc2c(cc1C#N)CCCCCC2
4. COC(=O)c1ccc(-c2sc3nc(N4CCOCC4)c4c(c3c2N)CCCC4)o1
5. O=S(=O)(c1cccc2cnccc12)N1CCCNCC1
6. Cc1ccc(NC(=O)CSC2=C(C#N)C(c3ccc4c(c3)OCO4)CC(=O)N2)cc1C (stereo not given)
7. COc1cc(/C=N/O)ccc1OCc1ccc(C(=O)O)cc1
8. COC(=O)/C(=C1/Oc2cc(C)oc(=O)c2S1)C(F)(F)F

Outgoing:
1: 1.35; 2: -0.314; 3: -0.157; 4: 0.0278; 5: 0.628; 6: 0.339; 7: 0.882; 8: 0.462

Your task in this section: give z-score for each listed record.
1. COc1ccccc1N(Cc1cc2cccc(C)c2[nH]c1=O)C(=O)C(C)C
2. O=c1[nH]cnc2cc(-c3ccccc3)sc12
3. O=C(O)c1cc2n(n1)C(C(F)(F)F)CC(c1ccccc1)N2 (stereo not given)
4. COc1ccc(Cn2c(O)cc(=O)[nH]c2=O)cc1

Outgoing:
[-1.06, -1.43, -0.827, 1.15]

Would you be so kind as to report z-score for each listed record?
1. CCN(CC)CCCN1C(=O)C(=O)/C(=C(/O)c2ccc(C)cc2)C1c1ccccn1 (stereo not given)
2. Cc1cc(C)n(-c2nnc(C)n2/N=C/c2ccccc2F)n1
3. C=CCSc1nnc2n(-c3ccccc3OC)c(=O)c3c4c(sc3n12)CCC4
4. O/N=C1\CCc2cc(Cl)ccc21
5. CC(=O)N/C(=N/c1nc(C)cc(C)n1)Nc1ccc(NC(C)=O)cc1
6. c1ccc(-c2ccc(C(c3ccccc3)n3ccnc3)cc2)cc1 (stereo not given)
7. COC(=O)c1ccc(Nc2cc(C)nc(-c3ccccc3O)n2)cc1

Outgoing:
-0.315
1.09
-0.888
0.785
-1.09
0.79
0.0889
